Attribution: paper PMC10065799

- System: EPHB1 kinase domain
- method: pTyr-Var library bacterial peptide display kinase screen (enrichment scores)
- Format: biochemical, human
- settings: sheet EPHB1; effect of the variant peptide relative to its reference peptide in the pTyr-Var library screen (enrichment scores)
Give Screen for every item shown.

Give EPHB1 kinase domain Screen for IFSGIYFKPES [L2HGDH_Y102_H98Y_YF] 0.7253

Give EPHB1 kinase domain Screen for PLDNLYAEPAV [PRPS1_Y146_V142L] 0.8585

Give EPHB1 kinase domain Screen for RRNEEYCLLAS [ITK_Y198_D202A] -0.2034

Give EPHB1 kinase domain Screen for VGTKWYMAPEV [ACVRL1_Y375_R374W] 2.34

Give EPHB1 kinase domain Screen for PFGQWYESHFA [RPS8_Y113_R110G_YF] 2.825

Give EPHB1 kinase domain Screen for PFRKLYESVKK [MKI67_Y241_W238R] -3.688

Give EPHB1 kinase domain Screen for RGDCTYAPLLG [AR_Y269_M268T] 0.2378

Give EPHB1 kinase domain Screen for IEEGTYGVAFR [CDK11B_Y449_V452A_YF] -1.792

Give EPHB1 kinase domain Screen for KLPFLYDDPFS [GPX2_Y127_P126L_YF] 2.862

Give EPHB1 kinase domain Screen for REVPVYTFSEP [FAM120B_Y368_D370Y_YF] 0.7576

Give EPHB1 kinase domain Screen for DGQVNYEELVQ [CALM1_Y139_F142L] -0.5322

Give EPHB1 kinase domain Screen for LAIELYVVVCK [RHO_Y136_R135L] 1.06

Give EPHB1 kinase domain Screen for QSSALYEDHFL [ASS1_Y83_R86H_YF] 0.2982

Give EPHB1 kinase domain Screen for NTFENYWPFFQ [GATM_Y103_K102N_YF] 4.344

Give EPHB1 kinase domain Screen for VRFVDYVLFRS [FAM189B_Y361_S358F] 1.362

Give EPHB1 kinase domain Screen for RHPEVYHHLGI [NVL_Y290_V295I] 0.1225

Give EPHB1 kinase domain Screen for LENSTYQFIHV [CRB1_Y760_R764H_YF] 0.7891

Give EPHB1 kinase domain Screen for HGQVNYEEFVQ [CALM2_Y139_D134H] 1.863

Give EPHB1 kinase domain Screen for LFEDRYLLGPS [ASS1_Y87_T91P_YF] -1.226

Give EPHB1 kinase domain Screen for KLVQLYDVCTK [BTK_Y461_G462D] 3.126

Give EPHB1 kinase domain Screen for HNLDFYKMTTN [FGFR3_Y648_K650M_YF] -1.054

Give EPHB1 kinase domain Screen for RQNQEYEILMD [KRT39_Y379_L383M] 0.4118

Give EPHB1 kinase domain Screen for FTNELYMMMRD [FGFR1_Y730_C725Y_YF] 0.7713

Give EPHB1 kinase domain Screen for KVASVYEALGF [NT5C_Y65_P68L] 1.12

Give EPHB1 kinase domain Screen for FQNSLYAPDFS [FAM92A_Y226_R222Q_YF] 0.991

Give EPHB1 kinase domain Screen for LDTFIYDAAVL [GRIN2A_Y730_A727T] -0.673

Give EPHB1 kinase domain Screen for LFEDCYLLGTS [ASS1_Y87_R86C_YF] -1.767

----------
- Tested on: Fer kinase domain
- method: pTyr-Var library bacterial peptide display kinase screen (enrichment scores);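 also: log2 fold change in enrichment of variant over reference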
- Assay type: biochemical, mouse
- settings: sheet "Fer"; value of the variant peptide against its reference peptide in the pTyr-Var library screen with Fer
observation type: Screen
I only need the number, thanks.

So what does the record say about Screen for PFRKLYESVKK [MKI67_Y241_W238R] ? -1.869

So what does the record say about Screen for KLVQLYDVCTK [BTK_Y461_G462D] ? 2.534

So what does the record say about Screen for RGDCTYAPLLG [AR_Y269_M268T] ? -1.638

So what does the record say about Screen for KLPFLYDDPFS [GPX2_Y127_P126L_YF] ? 1.127

So what does the record say about Screen for REVPVYTFSEP [FAM120B_Y368_D370Y_YF] ? 3.619

So what does the record say about Screen for IEEGTYGVAFR [CDK11B_Y449_V452A_YF] ? -0.4849

So what does the record say about Screen for LDTFIYDAAVL [GRIN2A_Y730_A727T] ? -0.1876

So what does the record say about Screen for HNLDFYKMTTN [FGFR3_Y648_K650M_YF] ? -0.9943

So what does the record say about Screen for ITNLLYHLVGW [GBA_Y412_V414L] ? 0.1481

So what does the record say about Screen for HESEIYGKVCF [CSRP3_Y57_C58G_YF] ? 1.394

So what does the record say about Screen for RGKLFYQEVPA [METTL11B_Y76_A72G] ? -1.394

So what does the record say about Screen for QRPFVYFFSFL [PTEN_Y176_R173P_YF] ? -0.4962

So what does the record say about Screen for GGMTEYELVVV [KRAS_Y4_K5E] ? 4.104

----------
- tested target: c-Abl kinase domain (Mus musculus, UniProt P00520)
- method: pTyr-Var library bacterial peptide display kinase screen (enrichment scores);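 also: log2 fold change in enrichment of variant over reference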
- Type: biochemical
- settings: fig5-data2, sheet "Abl"; Screen for the variant/reference peptide pair, pTyr-Var library
Entries are sorted into classes by Screen as follows: Low (below 0.01), Mid (0.01 to below 0.7), High (0.7 or more)

Category of GVSFIYTIDGS [DCX_Y105_R102S_YF] , please. Low

Category of ERIELYELDKK [PMM2_Y145_F144L] , please. Mid

Category of LENSTYQFIHV [CRB1_Y760_R764H_YF] , please. Low

Category of LMQAEYWHDPI [PPT1_Y185_V181M] , please. Mid

Category of QHVPDYRQNGF [PCDHGA10_Y895_V899G_YF] , please. Mid

Category of PDSVDYPKKGF [CTSK_Y121_R122P_YF] , please. Low

Category of GITTGYLVLKE [DNMT3B_Y588_A585T] , please. High

Category of AFQGKYTPSGQ [ALDOA_Y343_C339Y_YF] , please. Low

Category of HHFAAYFQQGD [GPI_Y351_R347H] , please. Mid

Category of EPAVLYNLKER [MYH7_Y103_D107E] , please. Low

Category of QQLQGYVPSNF [FRK_Y99_I100V_YF] , please. Mid

Category of KAIMTYVFSFF [ACTN4_Y260_S262F_YF] , please. Low

Category of IWGKKYPTCNS [PTPRZ1_Y53_N48I] , please. Mid

Category of DCLASYLDKVR [KRT14_Y129_R125C] , please. High

Category of LEIETYRRLRD [KRT12_Y429_L433R] , please. High

Category of WDLTDYLMKIL [ACTB_Y188_R183W] , please. High

Category of TSQSQYSSFRE [CCDC170_Y323_F324S] , please. High

Category of RLLRGYNQSAF [HLA-C_Y137_D138N_YF] , please. High

Category of IVLRSYPASDH [NID2_Y449_G453D] , please. Mid

Category of TGNPAYRSFSN [IL4R_Y497_A492T] , please. High

Category of DPHECYAKVFN [ALB_Y394_D399N] , please. Low

Category of HSKGIYFVQLE [MGAT4B_Y262_Q257H_YF] , please. Low

Category of SARVRYLMAEK [LDHB_Y173_F171V] , please. High

Category of GKVADYIPQLP [GLS_Y249_A254P] , please. Mid

Category of VIKDKYPKAHF [APTX_Y209_R213H_YF] , please. Mid

Category of KNEVLYDEENH [ARFGEF1_Y314_G316E] , please. Low

Category of NNFGNYNNQSS [HNRNPA1_Y318_D314N] , please. High

Category of DFTSRYLSASD [PKHD1_Y828_N830S] , please. Mid

Category of EDAHHYLCKEV [JAK2_Y382_A377E] , please. Low

Category of PMFHSYVSLPF [PLXNA2_Y293_K289M] , please. Mid

Category of TLPAFYMENFS [GLB1_Y552_G554E] , please. Mid

Category of KICDWYQRQRP [KRT14_Y151_R148C] , please. High

----------
- Test system: EPHB1 kinase domain
- method: pTyr-Var library bacterial peptide display kinase screen (enrichment scores)
- Type: biochemical, human
- settings: sheet "EPHB1"; variant seq vs reference seq; bacterial peptide display enrichment
observation type: Screen (variant relative to reference peptide, measured in the pTyr-Var library screen)
I only need the number, thanks.

Give EPHB1 kinase domain Screen (variant relative to reference peptide, measured in the pTyr-Var library screen) for ACCLLYCGDVV [TUBA4A_Y319_R320C] 4.284

Give EPHB1 kinase domain Screen (variant relative to reference peptide, measured in the pTyr-Var library screen) for SSPQLYLVPFL [TAF4_Y652_P651L] 3.351

Give EPHB1 kinase domain Screen (variant relative to reference peptide, measured in the pTyr-Var library screen) for RRIHSYRGHVW [VHL_Y112_L116V] -1.04

Give EPHB1 kinase domain Screen (variant relative to reference peptide, measured in the pTyr-Var library screen) for RPPELYALMSD [ZAP70_Y569_C564R] 2.108

Give EPHB1 kinase domain Screen (variant relative to reference peptide, measured in the pTyr-Var library screen) for RRIHRYRGHLW [VHL_Y112_S111R] -1.747

Give EPHB1 kinase domain Screen (variant relative to reference peptide, measured in the pTyr-Var library screen) for FSPCDYQPCLA [TNS1_Y798_Y796C_YF] 3.912

Give EPHB1 kinase domain Screen (variant relative to reference peptide, measured in the pTyr-Var library screen) for MVIPNYSSWTE [UROC1_Y185_R188W] 4.533

Give EPHB1 kinase domain Screen (variant relative to reference peptide, measured in the pTyr-Var library screen) for RRIHSYRCHLW [VHL_Y112_G114C] -1.413
